Taken from ChEMBL document CHEMBL3864129.

Tested on: Enterococcus faecium
PROCEDURE TEXT: Antimicrobial activity against Enterococcus […] ATCC 51299 by CLSI M07-A9 method
Type: functional
Use MIC to assign classes; range list: bin 0 (below 0.8 µg/mL), bin 1 (0.8 µg/mL to below 2 µg/mL), bin 2 (2 µg/mL or more)

> print(dat)
                                   molecule  target.or.test.system  classification
1   Oc1cc(Br)c(Br)c(Br)c1Oc1cc(Br)cc(Br)c1O   Enterococcus faecium           bin 0
2          Oc1cc(Br)cc(Br)c1Oc1ccc(Br)cc1Br   Enterococcus faecium           bin 1
3       Oc1cc(Br)cc(Br)c1Oc1cc(Br)cc(Br)c1O   Enterococcus faecium           bin 1
4         COc1c(Br)cc(Br)cc1Oc1ccc(Br)cc1Br   Enterococcus faecium           bin 2
5  Cc1onc(-c2ccccc2)c1C(=O)N[C@@H]1C(=O)N2[C@@H]1SC(C)(C)[C@@H]2C(=O)O [OXACILLIN]   Enterococcus faecium           bin 2
6  Oc1c(Br)cc(Br)cc1Oc1c(O)c(Br)c(Br)c(Br)c1Br   Enterococcus faecium           bin 0
7          Oc1cc(Br)c(Br)cc1Oc1ccc(Br)cc1Br   Enterococcus faecium           bin 0
8  COc1c(Br)cc(Br)cc1Oc1c(Br)c(OC)c(Br)c(Br)c1OC   Enterococcus faecium           bin 2
9  COc1c(Br)cc(Br)cc1Oc1cc(Br)c(Br)c(Br)c1OC   Enterococcus faecium           bin 2
